Test: In vivo utilization: single injection via vena cava catheter, plasma peptide/amino acid concentrations by RP-HPLC after DANSYL derivatization
Set-up: species or system male Wistar-rats
Conditions: 30 s after injection, 20 μmol/100 g bw
Where a SMILES comes first, the peptide text is derived from it. Bridges are numbered along the chain shown (N, C = ends). Roman numbers before positions name the chains, in order.
Parameter: tripeptide concentration in plasma (µM)
Numeric answer only, unit µM assumed.

Fill blank: measured tripeptide concentration in plasma of the compound NCC(=O)N[C@@H](CSSC[C@H](NC(=O)CN)C(=O)O)C(=O)O [(gly-cys)2, N,N'-bis-glycyl-L-cystine] (I: H-Gly-Cys-OH / II: H-Gly-Cys-OH; disulfide I:2-II:2) is ____.
655

Could you now consider this next compound?
Dear colleague, I am looking for the recorded tripeptide concentration in plasma of the following compound: C[C@H](N)C(=O)N[C@@H](CSSC[C@H](NC(=O)[C@H](C)N)C(=O)O)C(=O)O [(ala-cys)2, N,N'-bis-L-alanyl-L-cystine] (I: H-Ala-Cys-OH / II: H-Ala-Cys-OH; disulfide I:2-II:2)
280
